Biological target: c-Cbl (Homo sapiens (Human))
Sequence (P22681 47-435): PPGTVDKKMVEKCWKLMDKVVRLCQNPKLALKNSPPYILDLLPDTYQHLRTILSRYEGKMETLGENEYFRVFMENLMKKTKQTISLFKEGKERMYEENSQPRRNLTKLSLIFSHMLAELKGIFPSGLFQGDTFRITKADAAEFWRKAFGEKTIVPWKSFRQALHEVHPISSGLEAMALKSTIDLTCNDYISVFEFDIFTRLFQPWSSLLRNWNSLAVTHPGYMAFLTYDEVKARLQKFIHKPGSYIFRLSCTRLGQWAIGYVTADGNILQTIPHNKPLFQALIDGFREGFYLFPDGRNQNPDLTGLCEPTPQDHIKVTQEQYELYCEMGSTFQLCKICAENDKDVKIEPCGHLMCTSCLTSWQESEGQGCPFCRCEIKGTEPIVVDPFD
Assay: C-Cbl LCK Ub TR-FRET assay (c-cbl Lck HTRF)
Type: biochemical
pIC50: −log10 of the molar value. Where a name gives a salt, the structure may show the parent alone.
Classification field: 1 (yes) = pIC50 at or over 7; 0 (no) = pIC50 under 7.

MOLECULE	CLASS
CO[C@H]1CCCN(Cc2cc3c(c(C(F)(F)F)c2)CN(c2cccc(C4(Cc5nncn5C)CC(F)(F)C4)c2)C3=O)C1	0 (no)
C[C@H](NC1(C)CCC1)c1cc2c(c(C(F)(F)F)c1)CN(c1cccc(C3([C@@H](F)c4nncn4C)COC3)c1)C2=O	1 (yes)
Cn1cnnc1[C@H](F)C1(c2cccc(N3Cc4c(Br)cc(CNC5(C)CCC5)cc4C3=O)c2)COC1	1 (yes)
Cn1cnnc1CC1(c2cc(NCCCN3CCOCC3)nc(N3Cc4c(cc(CNC5(C)CCC5)cc4C(F)(F)F)C3=O)c2)CCC1	0 (no)
Cn1cnnc1[C@H](F)C1(c2cccc(N3Cc4c(cc(CNCC5CC5)cc4C(F)(F)F)C3=O)c2)CC(F)(F)C1	1 (yes)
Cn1cnnc1CC1(c2cccc(N3Cc4c(cc(CNCC5CCOC5)cc4C(F)(F)F)C3=O)c2)CC(F)(F)C1 (stereo not drawn) [Compound 358, formate]	1 (yes)
COc1cc(C2(Cc3nncn3C)CCC2)cc(N2Cc3c(cc(CN4CCN(C)C[C@@H]4C(C)C)cc3C(F)(F)F)C2=O)n1	1 (yes)
C[C@H](N)c1cc2c(c(C(F)(F)F)c1)CN(c1cccc(C3(Cc4nncn4C)CC(F)(F)C3)c1)C2=O	1 (yes)

* * *

Target: Cbl-b (Homo sapiens (Human))
Assay: Cbl-b LCK Ub TR-FRET assay (Cbl-b Lck HTRF)
Format: biochemical
Protocol: Compounds were 3-fold serially diluted in DMSO in a 384-well polypropylene plate (#P-05525-BC; Labcyte) to generate a source plate with 10 concentrations of each compound, top concentration=2 mM. […] Plates were read for TR-FRET using an Envision at excitation 340 nm, emission at 615 and 665 nm, 4 flashes per well. […] Cbl-b Lck HTRF data in Table 7 is measured according to Example 76 herein; C-cbl Lck HTRF data is measured according to Example 76 herein.
Counter-ions that a name gives are not always drawn.
// values below are reported IC50
EXPERIMENTAL_ENDPOINT: IC50 (nM)

MOLECULE	EXPERIMENTAL_ENDPOINT	ASSAY_VALUE
Cn1cnnc1[C@H](F)C1(c2cccc(N3Cc4c(cc([C@H](N)C5CCC5)cc4C(F)(F)F)C3=O)c2)COC1 [Compound 392]	IC50	13
Cn1cnnc1CC1(c2cc(NCCc3ccncc3)nc(N3Cc4c(cc(CNC5(C)CCC5)cc4C(F)(F)F)C3=O)c2)CCC1 [Compound 321]	IC50	18
C[C@@H](N)c1cc2c(c(C(F)(F)F)c1)CN(c1cccc(C3([C@@H](F)c4nncn4C)COC3)c1)C2=O [Compound 191]	IC50	35
Cn1cnnc1CC1(c2cc(NCCC(F)(F)F)nc(N3Cc4c(cccc4C(F)(F)F)C3=O)c2)COC1 [Compound 488]	IC50	1900
CN1C[C@@H]2C[C@H]1CN2Cc1cc2c(c(C(F)(F)F)c1)CN(c1cccc(C3(Cc4nncn4C)CC(F)(F)C3)c1)C2=O [Compound 414]	IC50	88
Cn1cnnc1[C@@H](F)C1(c2cccc(N3Cc4c(cc(CN5CCC5)cc4C(F)(F)F)C3=O)c2)CC(F)(F)C1 [Compound 398]	IC50	140
Cn1cnnc1CC1(c2cccc(N3Cc4c(cc(CNC5(C)CCC5(C)C)cc4C(F)(F)F)C3=O)c2)CC(F)(F)C1 (centres unmarked) [Compound 355]	IC50	14
CC[C@H]1CC[C@H](c2cc3c(c(C(F)(F)F)c2)CN(c2cccc(C4(Cc5nncn5C)CC(F)(F)C4)c2)C3=O)N1 [Compound 469]	IC50	48
C=CCNc1cc(C2(Cc3nncn3C)CCC2)cc(N2Cc3c(cc(CN4CCN(C)C[C@@H]4C(C)C)cc3C(F)(F)F)C2=O)n1 [Compound 275]	IC50	7
CC(C)NCc1cc2c(c(C(F)(F)F)c1)CN(c1cccc(C3([C@@H](F)c4nncn4C)COC3)c1)C2=O [Compound 226, formate]	IC50	29
CN(CCC(C)(C)O)Cc1cc2c(c(C(F)(F)F)c1)CN(c1cccc(C3([C@H](F)c4nncn4C)COC3)c1)C2=O [Compound 158]	IC50	270
Cn1cnnc1CC1(c2cc(Cc3ccccc3)nc(N3Cc4c(cc(CNC5(C)CCC5)cc4C(F)(F)F)C3=O)c2)CCC1 [Compound 241]	IC50	21
CCn1cnnc1[C@@H](F)C1(c2cccc(N3Cc4c(cccc4C(F)(F)F)C3=O)c2)COC1 [Compound 271]	IC50	1600
C=CC(=O)Nc1cc(C2(Cc3nncn3C)CCC2)cc(N2Cc3c(cc(CN4CCN(C)C[C@@H]4C(C)C)cc3C(F)(F)F)C2=O)n1 [Compound 239]	IC50	35
Cn1cnnc1CC1(c2cc(NCCC#N)nc(N3Cc4c(cc(CNC5(C)CCC5)cc4C(F)(F)F)C3=O)c2)CCC1 [Compound 308]	IC50	12
Cn1cnnc1[C@@H](F)C1(c2cccc(N3Cc4c(cc(CN5CCC[C@@H]5CO)cc4C(F)(F)F)C3=O)c2)COC1 [Compound 148]	IC50	690
Cn1cnnc1C(F)(F)C1(c2cccc(N3Cc4c(cc(CNC5(C)CCC5)cc4C(F)(F)F)C3=O)c2)CCC1 [Compound 235]	IC50	15
CCOc1cc(C2(Cc3nncn3C)CCC2)cc(N2Cc3c(cc(CN4CCN(C)C[C@@H]4C(C)C)cc3C(F)(F)F)C2=O)n1 [Compound 404]	IC50	10
CN1CCN(Cc2cc3c(c(C(F)(F)F)c2)CN(c2cccc(C4(Cc5nncn5C)CC(F)(F)C4)c2)C3=O)[C@H](C2CC2)C1 [Compound 433]	IC50	94
Cn1cnnc1CC1(c2cccc(N3Cc4c(cc(CN5CCC[C@@](C)(O)C5)cc4C(F)(F)F)C3=O)c2)CC(F)(F)C1 [Compound 441]	IC50	42
Cn1cnnc1CC1(c2cc(C3CC3)cc(N3Cc4c(cc(CNC5(C)CCC5)cc4C(F)(F)F)C3=O)c2)COC1 [Compound 472]	IC50	15
CN(C)CCNc1cc(C2(Cc3nncn3C)CCC2)cc(N2Cc3c(cc(CNC4(C)CCC4)cc3C(F)(F)F)C2=O)n1 [Compound 337]	IC50	2400
CCCNCc1cc2c(c(C(F)(F)F)c1)CN(c1cccc(C3([C@@H](F)c4nncn4C)COC3)c1)C2=O [Compound 228, formate]	IC50	12
CC(C)[C@H]1CN(C)CCN1Cc1cc2c(c(C(F)(F)F)c1)CN(c1cccc(C3([C@@H](F)c4nncn4C4CCCCC4)COC3)c1)C2=O [Compound 454]	IC50	11000
CC(C)CNc1cc(C2(Cc3nncn3C)CCC2)cc(N2Cc3c(cc(CNC4(C)CCC4)cc3C(F)(F)F)C2=O)n1 [Compound 348]	IC50	13
CC(C)[C@H]1CN(C)CCN1Cc1cc2c(c(C(F)(F)F)c1)CN(c1cc(C3([C@H](F)c4nncn4C)CCC3)cc(NCCO)n1)C2=O [Compound 234]	IC50	7.2

* * *

Target: Cbl-b (Homo sapiens (Human), UniProt Q13191)
Sequence (Q13191 40-426): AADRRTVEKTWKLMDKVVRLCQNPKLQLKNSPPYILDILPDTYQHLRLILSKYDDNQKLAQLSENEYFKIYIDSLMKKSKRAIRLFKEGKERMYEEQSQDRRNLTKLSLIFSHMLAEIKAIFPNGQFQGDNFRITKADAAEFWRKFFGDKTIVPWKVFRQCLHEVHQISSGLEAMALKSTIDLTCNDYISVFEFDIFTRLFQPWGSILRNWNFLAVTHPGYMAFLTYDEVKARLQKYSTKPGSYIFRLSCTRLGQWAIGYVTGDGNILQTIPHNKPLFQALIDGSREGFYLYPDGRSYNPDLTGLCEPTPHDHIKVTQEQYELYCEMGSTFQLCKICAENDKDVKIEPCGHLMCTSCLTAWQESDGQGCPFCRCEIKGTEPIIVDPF
Experiment: Cbl-b LCK Ub TR-FRET assay (Cbl-b Lck HTRF)
Assay type: biochemical
// classify: if (IC50 < 20 nM) Criterion met else Criterion not met

STRUCTURE	CLASS
Cn1cnnc1CC1(c2cc(NCC(F)(F)CO)nc(N3Cc4c(cc(CNC5(C)CCC5)cc4C(F)(F)F)C3=O)c2)CCC1	Criterion not met
Cn1cnnc1CC1(c2cccc(N3Cc4c(cc(CNC5CCCC5)cc4C(F)(F)F)C3=O)c2)CC(F)(F)C1	Criterion met
CC(C)[C@H]1CN(CCF)CCN1Cc1cc2c(c(C(F)(F)F)c1)CN(c1cccc(C3([C@H](F)c4nncn4C)COC3)c1)C2=O	Criterion met
CC[C@@H](C)NCc1cc2c(c(C(F)(F)F)c1)CN(c1cccc(C3(Cc4nncn4C)CC(F)(F)C3)c1)C2=O	Criterion not met
CO[C@@H]1CCN(Cc2cc3c(c(C(F)(F)F)c2)CN(c2cccc(C4([C@H](F)c5nncn5C)COC4)c2)C3=O)C1	Criterion not met
Cn1cnnc1[C@@H](F)C1(c2cccc(N3Cc4c(cc(CN5CC(CCO)C5)cc4C(F)(F)F)C3=O)c2)COC1	Criterion not met
CCNc1cc(C2(Cc3nncn3C)COC2)cc(N2Cc3c(cc(CN4CCN(C)C[C@@H]4C(C)C)cc3C(F)(F)F)C2=O)n1	Criterion met
Cn1cnnc1[C@@H](F)C1(c2cccc(N3Cc4c(cc(CN5CC(C)(CCl)C5)cc4C(F)(F)F)C3=O)c2)COC1	Criterion not met
Cn1cnnc1[C@H](F)C1(c2cccc(N3Cc4c(cc(CN5CC6(C5)CS(=O)(=O)C6)cc4C(F)(F)F)C3=O)c2)COC1	Criterion not met
Cn1cnnc1[C@@H](F)C1(c2cccc(N3Cc4c(cc(CN5CCC[C@@H](CO)C5)cc4C(F)(F)F)C3=O)c2)COC1	Criterion not met
Cn1cnnc1CC1(c2cc(C3CC3)nc(N3Cc4c(cc(CNC5(C)CCC5)cc4C(F)(F)F)C3=O)c2)CCC1	Criterion met
CC[C@H]1CN(Cc2cc3c(c(C(F)(F)F)c2)CN(c2cccc(C4(Cc5nncn5C)CC(F)(F)C4)c2)C3=O)CCN1C	Criterion met
CCOc1cc(N2Cc3c(cc(CNC4(C)CCC4)cc3C(F)(F)F)C2=O)cc(C2(Cc3nncn3C)COC2)c1	Criterion met
CCCNCc1cc2c(c(C(F)(F)F)c1)CN(c1cc(NC(C)C)cc(C3(Cc4nncn4C)CCC3)c1)C2=O	Criterion met
Cn1cnnc1CC1(c2cc(NCCc3c[nH]c4ccccc34)nc(N3Cc4c(cc(CNC5(C)CCC5)cc4C(F)(F)F)C3=O)c2)CCC1	Criterion met

Data credit: patent US20250230147A1
